Below: a set of entries, each annotated with reported fraction unbound at 4 h, 5 µM.
assay: Fraction unbound in rat plasma at 5 uM incubated for 4 hrs by equilibrium dialysis based LC-MS/MS analysis; type: ADME, cell-free

# count of solved cases: 5
[[record]]
compound = "N#Cc1cnc2c(N3CCOCC3)cccc2c1N1CCN(c2ccccc2F)CC1"
quantity_name = "fraction unbound at 4 h, 5 µM"
reported_measurement = 0.01

[[record]]
compound = "CC(C)Oc1cc(F)cc2c(N3CCN(c4ccccc4F)CC3)c(C#N)cnc12"
quantity_name = "fraction unbound at 4 h, 5 µM"
reported_measurement = 0.005

[[record]]
compound = "COc1cccc2c(N3CCN(c4ccccc4F)CC3)c(C#N)cnc12"
quantity_name = "fraction unbound at 4 h, 5 µM"
reported_measurement = 0.032

[[record]]
compound = "COc1cc(F)cc2c(N3CCN(c4ccccc4F)CC3)c(C#N)cnc12"
quantity_name = "fraction unbound at 4 h, 5 µM"
reported_measurement = 0.01

[[record]]
compound = "[2H]C([2H])([2H])Oc1cc(F)cc2c(N3CCN(c4ccccc4F)CC3)c(C#N)cnc12"
quantity_name = "fraction unbound at 4 h, 5 µM"
reported_measurement = 0.01


# context switch: different compound, same fraction unbound at 4 h, 5 µM
# input Give me measured fraction unbound at 4 h, 5 µM, please, for this compound: N#Cc1cnc2c(OC3CCOC3)cccc2c1N1CCN(c2ccccc2F)CC1 (racemic)
# output 0.03

###

target: Metabotropic glutamate receptor 4 (Homo sapiens, UniProt Q14833); assay: Negative allosteric modulation of mGlu4 receptor (unknown origin)
pIC50: −log10 of the molar value.
quantity name: pIC50

# input State the measured pIC50 (Metabotropic glutamate receptor 4 (Homo sapiens, UniProt Q14833)) of CCOC(=O)c1cnc2c(OC)cccc2c1N1CCN(c2ccccc2F)CC1
# output < 4.52

###

test: Oral bioavailability in Sprague-Dawley rat at 10 mg/kg measured upto 24 hrs by LC-MS/MS analysis; format: ADME, organism-based; settings: in vivo
quantity name: bioavailability (%)
Entry rule: numbers only, all in %.

# input Give me measured bioavailability, please, for this compound: [2H]C([2H])([2H])Oc1cc(F)cc2c(N3CCN(c4ccccc4F)CC3)c(C#N)cnc12
# output 69.5

###

biological target: Metabotropic glutamate receptor 8 (Homo sapiens, UniProt O00222); test: Negative allosteric modulation of mGlu8 receptor (unknown origin)
Sequence (O00222 whole entry): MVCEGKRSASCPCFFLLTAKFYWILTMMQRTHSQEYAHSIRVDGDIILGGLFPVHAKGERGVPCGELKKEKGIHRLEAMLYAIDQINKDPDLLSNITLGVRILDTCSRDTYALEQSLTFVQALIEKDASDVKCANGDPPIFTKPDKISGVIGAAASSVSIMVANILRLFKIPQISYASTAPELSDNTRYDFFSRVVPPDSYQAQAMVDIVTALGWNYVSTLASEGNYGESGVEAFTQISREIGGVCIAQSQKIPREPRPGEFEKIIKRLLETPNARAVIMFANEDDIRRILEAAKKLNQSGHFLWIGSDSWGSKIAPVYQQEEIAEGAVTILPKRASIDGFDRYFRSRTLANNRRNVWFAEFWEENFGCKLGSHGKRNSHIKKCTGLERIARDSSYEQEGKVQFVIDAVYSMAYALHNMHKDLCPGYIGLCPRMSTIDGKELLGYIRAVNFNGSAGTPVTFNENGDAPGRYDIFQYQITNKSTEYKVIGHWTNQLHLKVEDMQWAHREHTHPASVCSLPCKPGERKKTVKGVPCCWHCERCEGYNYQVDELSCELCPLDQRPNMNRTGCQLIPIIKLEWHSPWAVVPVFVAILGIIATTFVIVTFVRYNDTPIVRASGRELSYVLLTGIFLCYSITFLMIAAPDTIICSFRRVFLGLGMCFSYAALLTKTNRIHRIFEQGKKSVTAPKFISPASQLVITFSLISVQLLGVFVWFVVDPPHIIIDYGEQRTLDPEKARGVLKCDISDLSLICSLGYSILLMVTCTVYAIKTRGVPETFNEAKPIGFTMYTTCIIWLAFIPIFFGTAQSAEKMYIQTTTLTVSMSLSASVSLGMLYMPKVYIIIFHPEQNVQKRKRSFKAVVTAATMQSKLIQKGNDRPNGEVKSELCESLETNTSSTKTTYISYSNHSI
pIC50: −log10 of the molar value.
quantity name: pIC50

# input Give me measured pIC50, please, for this compound: CCOC(=O)c1cnc2c(OC)cccc2c1N1CCN(c2ccccc2F)CC1
# output < 4.52

###

Below: a set of entries, each annotated with reported Ki.
biological target: UniProtKB Q01959; experiment: Displacement of […] from recombinant human Dopamine transporter after 120 mins by scintillation counting analysis
Sequence (Q01959 whole entry): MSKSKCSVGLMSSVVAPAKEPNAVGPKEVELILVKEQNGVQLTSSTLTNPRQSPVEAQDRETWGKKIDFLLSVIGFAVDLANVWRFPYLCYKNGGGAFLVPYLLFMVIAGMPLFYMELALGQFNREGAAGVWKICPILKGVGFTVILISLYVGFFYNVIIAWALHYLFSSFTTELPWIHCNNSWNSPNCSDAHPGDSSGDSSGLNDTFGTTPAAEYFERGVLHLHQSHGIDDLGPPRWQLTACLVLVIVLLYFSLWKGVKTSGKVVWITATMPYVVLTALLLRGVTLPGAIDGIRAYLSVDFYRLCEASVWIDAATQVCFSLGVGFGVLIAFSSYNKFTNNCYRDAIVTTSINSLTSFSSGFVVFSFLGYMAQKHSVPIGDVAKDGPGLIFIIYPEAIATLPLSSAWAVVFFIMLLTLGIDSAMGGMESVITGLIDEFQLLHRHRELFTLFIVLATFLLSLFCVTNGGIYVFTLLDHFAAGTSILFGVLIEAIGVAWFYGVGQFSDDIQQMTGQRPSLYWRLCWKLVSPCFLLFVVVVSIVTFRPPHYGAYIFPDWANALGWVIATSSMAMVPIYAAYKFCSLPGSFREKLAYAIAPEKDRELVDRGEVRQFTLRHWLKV

# count of solved cases: 2
[[record]]
molecule = "CC(C)Oc1cc(F)cc2c(N3CCN(c4ccccc4F)CC3)c(C#N)cnc12"
reported_measurement = "> 10 µM"

[[record]]
molecule = "COc1cccc2c(N3CCN(c4ccccc4F)CC3)c(C#N)cnc12"
reported_measurement = "0.43 µM"


# input Give me measured Ki, please, for this molecule: [2H]C([2H])([2H])Oc1cc(F)cc2c(N3CCN(c4ccccc4F)CC3)c(C#N)cnc12
# output > 10 µM

# input Give me measured Ki, please, for this molecule: N#Cc1cnc2c(N3CCOCC3)cccc2c1N1CCN(c2ccccc2F)CC1
# output > 10 µM

# input Give me measured Ki, please, for this molecule: N#Cc1cnc2c(OC3CCOC3)cccc2c1N1CCN(c2ccccc2F)CC1 (racemic)
# output > 10 µM

###

assay: Plasma to brain permeability coefficient, Kp of the compound in Sprague-Dawley rat at 0.2 mg/kg, iv measured after 0.25 hrs by LC-MS/MS analysis; type: ADME, organism-based
quantity name: Kp at 0.25 h
Answer as a number with no unit attached.

# count of solved cases: 3
[[record]]
compound = "CC(C)Oc1cc(F)cc2c(N3CCN(c4ccccc4F)CC3)c(C#N)cnc12"
reported_measurement = 4.99

[[record]]
compound = "[2H]C([2H])([2H])Oc1cc(F)cc2c(N3CCN(c4ccccc4F)CC3)c(C#N)cnc12"
reported_measurement = 4.78

[[record]]
compound = "N#Cc1cnc2c(OC3CCOC3)cccc2c1N1CCN(c2ccccc2F)CC1 (racemic)"
reported_measurement = 4.36


# input Give me measured Kp at 0.25 h, please, for this compound: N#Cc1cnc2c(N3CCOCC3)cccc2c1N1CCN(c2ccccc2F)CC1
# output 6.84

###

assay: Half-life in Sprague-Dawley rat at 1 mg/kg, iv and 10 mg/kg, po measured up to 24 hrs by LC-MS/MS analysis; assay type: ADME, organism-based; settings: in vivo
quantity name: half-life (h)
Entry rule: numbers only, all in h.

# input Give me measured half-life, please, for this molecule: [2H]C([2H])([2H])Oc1cc(F)cc2c(N3CCN(c4ccccc4F)CC3)c(C#N)cnc12
# output 7.5

###

experiment: Plasma clearance in Sprague-Dawley rat at 0.2 to 0.25 mg/kg, iv measured upto 24 hrs by LC/MS/MS analysis; format: ADME, organism-based; settings: dose 0.2-0.25 mg/kg
quantity name: clearance

# input Give me measured clearance, please, for this compound: COc1cccc2c(N3CCN(c4ccccc4F)CC3)c(C#N)cnc12
# output 47.5 mL/min/kg

###

target: hERG (KCNH2) (Homo sapiens); assay: Displacement of [3H]-Astemizole from human recombinant full length ERG channel at 10 uM incubated for 60 mins by scintillation counting analysis relative to control; conditions: probe [3H]-astemizole
Sequence (Q12809 whole entry): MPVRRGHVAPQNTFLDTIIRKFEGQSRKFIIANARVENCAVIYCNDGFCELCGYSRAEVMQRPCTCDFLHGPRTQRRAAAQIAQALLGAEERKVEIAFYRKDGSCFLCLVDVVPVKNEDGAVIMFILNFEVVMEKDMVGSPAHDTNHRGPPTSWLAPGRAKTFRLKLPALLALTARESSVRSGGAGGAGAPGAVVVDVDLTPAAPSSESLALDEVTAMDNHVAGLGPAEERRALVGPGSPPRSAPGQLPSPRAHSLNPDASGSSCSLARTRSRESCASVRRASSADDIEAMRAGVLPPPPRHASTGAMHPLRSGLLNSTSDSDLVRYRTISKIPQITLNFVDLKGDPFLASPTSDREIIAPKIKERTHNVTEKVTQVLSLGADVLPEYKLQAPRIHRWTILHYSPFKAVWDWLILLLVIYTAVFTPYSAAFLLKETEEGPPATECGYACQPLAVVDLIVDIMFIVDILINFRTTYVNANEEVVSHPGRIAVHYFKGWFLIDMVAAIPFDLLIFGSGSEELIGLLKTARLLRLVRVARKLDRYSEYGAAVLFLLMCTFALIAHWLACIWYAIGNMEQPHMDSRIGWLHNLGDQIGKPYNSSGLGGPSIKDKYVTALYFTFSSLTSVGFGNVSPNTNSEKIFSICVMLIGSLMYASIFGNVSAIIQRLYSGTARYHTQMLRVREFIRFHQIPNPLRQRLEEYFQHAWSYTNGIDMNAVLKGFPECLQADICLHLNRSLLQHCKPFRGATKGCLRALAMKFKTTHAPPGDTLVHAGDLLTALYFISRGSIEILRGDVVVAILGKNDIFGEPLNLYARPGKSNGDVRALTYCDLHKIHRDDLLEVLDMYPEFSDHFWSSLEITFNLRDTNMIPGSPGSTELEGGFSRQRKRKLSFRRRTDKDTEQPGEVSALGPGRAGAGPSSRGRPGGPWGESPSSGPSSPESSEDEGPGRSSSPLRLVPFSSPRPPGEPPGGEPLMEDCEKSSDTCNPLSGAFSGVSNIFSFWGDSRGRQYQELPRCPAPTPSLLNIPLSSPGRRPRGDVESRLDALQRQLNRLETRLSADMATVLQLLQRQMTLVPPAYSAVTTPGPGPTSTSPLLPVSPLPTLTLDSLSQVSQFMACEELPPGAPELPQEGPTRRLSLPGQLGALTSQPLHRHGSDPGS
quantity name: inhibition at 1 h, 10 µM

[[record]]
structure_smiles_string = "COc1cccc2c(N3CCN(c4ccccc4F)CC3)c(C#N)cnc12"
quantity_name = "inhibition at 1 h, 10 µM"
reported_measurement = "< 50%"


# context switch: different molecule, same inhibition at 1 h, 10 µM
# input Give me measured inhibition at 1 h, 10 µM, please, for this molecule: [2H]C([2H])([2H])Oc1cc(F)cc2c(N3CCN(c4ccccc4F)CC3)c(C#N)cnc12
# output < 50%

###

target: Metabotropic glutamate receptor 7 (Rattus norvegicus) (UniProt P35400); assay: Positive allosteric modulation of rat mGlu7 receptor expressed in HEK293 cells co-expressing Gai5 assessed as potentiation of L-AP4-induced calcium mobilization preincubated for 140 secs and treated with EC20 L-AP4 for 125 secs and followed by subsequent addition of EC80 L-AP4 by Fluo-4-AM dye based fluorescence assay relative to maximal induction of L-AP4; type: functional, cell-based; settings: filed as positive allosteric modulator, time 140.0 sec
Sequence (P35400 whole entry): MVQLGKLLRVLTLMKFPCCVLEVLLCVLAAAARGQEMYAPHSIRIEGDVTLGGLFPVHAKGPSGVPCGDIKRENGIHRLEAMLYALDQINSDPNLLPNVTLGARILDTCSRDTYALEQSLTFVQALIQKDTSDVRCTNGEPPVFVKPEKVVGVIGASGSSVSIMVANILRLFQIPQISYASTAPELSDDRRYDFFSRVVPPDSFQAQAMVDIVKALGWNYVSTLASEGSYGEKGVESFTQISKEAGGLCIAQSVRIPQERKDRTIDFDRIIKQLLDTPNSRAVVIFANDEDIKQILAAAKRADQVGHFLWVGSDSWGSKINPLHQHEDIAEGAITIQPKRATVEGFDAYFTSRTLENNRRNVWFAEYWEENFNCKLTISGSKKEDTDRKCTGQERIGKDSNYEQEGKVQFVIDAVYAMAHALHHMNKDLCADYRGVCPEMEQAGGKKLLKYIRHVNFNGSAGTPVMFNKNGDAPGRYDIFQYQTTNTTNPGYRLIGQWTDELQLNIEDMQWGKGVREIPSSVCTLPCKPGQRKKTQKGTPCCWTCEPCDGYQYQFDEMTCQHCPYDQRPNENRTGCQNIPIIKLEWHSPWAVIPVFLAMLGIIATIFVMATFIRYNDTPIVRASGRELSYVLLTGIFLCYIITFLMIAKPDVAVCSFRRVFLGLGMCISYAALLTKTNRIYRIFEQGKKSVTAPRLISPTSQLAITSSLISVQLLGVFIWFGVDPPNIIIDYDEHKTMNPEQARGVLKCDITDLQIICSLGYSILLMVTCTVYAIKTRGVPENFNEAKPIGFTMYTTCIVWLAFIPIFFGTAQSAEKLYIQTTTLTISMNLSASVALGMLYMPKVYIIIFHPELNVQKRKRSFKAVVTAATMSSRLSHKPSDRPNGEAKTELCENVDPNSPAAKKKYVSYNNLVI
quantity name: Activity

# count of solved cases: 6
[[record]]
molecule = "N#Cc1cnc2c(O)cc(F)cc2c1N1CCN(c2ccccc2F)CC1"
test_target = "Metabotropic glutamate receptor 7 (Rattus norvegicus) (UniProt P35400)"
reported_measurement = "90%"

[[record]]
molecule = "COc1cc(F)cc2c(N3CCN(c4ccccc4F)CC3)c(C#N)cnc12"
test_target = "Metabotropic glutamate receptor 7 (Rattus norvegicus) (UniProt P35400)"
reported_measurement = "98%"

[[record]]
molecule = "COc1cccc2c(N3CCN(c4ccccc4F)CC3)c(C#N)cnc12"
test_target = "Metabotropic glutamate receptor 7 (Rattus norvegicus) (UniProt P35400)"
reported_measurement = "85.1%"

[[record]]
molecule = "CC(C)Oc1cc(F)cc2c(N3CCN(c4ccccc4F)CC3)c(C#N)cnc12"
test_target = "Metabotropic glutamate receptor 7 (Rattus norvegicus) (UniProt P35400)"
reported_measurement = "82%"

[[record]]
molecule = "N#Cc1cnc2c(-n3cncn3)cccc2c1N1CCN(c2ccccc2F)CC1"
test_target = "Metabotropic glutamate receptor 7 (Rattus norvegicus) (UniProt P35400)"
reported_measurement = "23%"

[[record]]
molecule = "N#Cc1cnc2c(OC(F)F)cccc2c1N1CCN(c2ccccc2F)CC1"
test_target = "Metabotropic glutamate receptor 7 (Rattus norvegicus) (UniProt P35400)"
reported_measurement = "68%"


# input Give me measured Activity, please, for this molecule: N#Cc1cnc2c(OC3CCC3)cccc2c1N1CCN(c2ccccc2F)CC1
# output 67%

# input Give me measured Activity, please, for this molecule: N#Cc1cnc2c(OCC3CCOC3)cccc2c1N1CCN(c2ccccc2F)CC1 (racemic)
# output 88%

# input Give me measured Activity, please, for this molecule: CC(C)Oc1cccc2c(N3CCN(c4ccccc4F)CC3)c(C#N)cnc12
# output 67%

# input Give me measured Activity, please, for this molecule: N#Cc1cnc2c(OC(F)F)cc(F)cc2c1N1CCN(c2ccccc2F)CC1
# output 98%

###

molecular target: Metabotropic glutamate receptor 3 (Homo sapiens); assay: Positive allosteric modulation of mGlu3 receptor (unknown origin)
Sequence (Q14832 whole entry): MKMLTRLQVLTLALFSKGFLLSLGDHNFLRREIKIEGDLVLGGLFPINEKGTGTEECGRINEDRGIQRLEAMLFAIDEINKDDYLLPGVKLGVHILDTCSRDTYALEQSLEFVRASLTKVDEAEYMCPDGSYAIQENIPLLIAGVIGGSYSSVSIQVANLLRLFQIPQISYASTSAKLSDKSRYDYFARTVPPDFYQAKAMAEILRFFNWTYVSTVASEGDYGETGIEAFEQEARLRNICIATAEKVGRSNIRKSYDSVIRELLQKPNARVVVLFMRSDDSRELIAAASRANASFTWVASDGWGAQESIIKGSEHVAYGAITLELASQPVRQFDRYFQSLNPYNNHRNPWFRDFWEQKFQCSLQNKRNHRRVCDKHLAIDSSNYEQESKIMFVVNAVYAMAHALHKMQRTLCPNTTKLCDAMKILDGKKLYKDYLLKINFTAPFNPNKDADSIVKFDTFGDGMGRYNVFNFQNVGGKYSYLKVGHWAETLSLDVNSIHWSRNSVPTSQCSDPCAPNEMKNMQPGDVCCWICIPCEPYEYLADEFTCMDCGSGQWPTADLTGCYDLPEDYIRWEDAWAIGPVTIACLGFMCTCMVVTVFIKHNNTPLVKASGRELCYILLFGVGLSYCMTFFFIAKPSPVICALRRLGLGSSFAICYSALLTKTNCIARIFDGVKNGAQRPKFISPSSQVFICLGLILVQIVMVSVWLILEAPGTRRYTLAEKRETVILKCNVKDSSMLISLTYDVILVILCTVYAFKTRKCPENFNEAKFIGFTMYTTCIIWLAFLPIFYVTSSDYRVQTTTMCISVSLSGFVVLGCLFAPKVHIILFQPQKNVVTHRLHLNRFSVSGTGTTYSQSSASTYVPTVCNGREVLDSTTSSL
quantity name: EC50

# input Give me measured EC50, please, for this compound: [2H]C([2H])([2H])Oc1cc(F)cc2c(N3CCN(c4ccccc4F)CC3)c(C#N)cnc12
# output > 30 µM

###

biological target: Metabotropic glutamate receptor 7 (Rattus norvegicus, UniProt P35400); assay: Positive allosteric modulation of rat mGlu7 receptor expressed in HEK293 cells co-expressing Gai5 assessed as potentiation of L-AP4-induced calcium mobilization preincubated for 140 secs and treated with EC20 L-AP4 for 125 secs and followed by subsequent addition of EC80 L-AP4 by Fluo-4-AM dye based fluorescence assay; type: functional, cell-based; settings: read-out: EC50
Sequence (P35400 whole entry): as the sequence (P35400 whole entry) above
pEC50: −log10 of the molar value.
Label Yes for high-side pEC50 (at or above 6) and No for low-side pEC50 (below it).

[[record]]
molecule = "N#Cc1cnc2c(OC3CCOC3)cc(F)cc2c1N1CCN(c2ccccc2F)CC1 (stereo unspecified)"
test_target = "Metabotropic glutamate receptor 7 (Rattus norvegicus, UniProt P35400)"
classification = "Yes"


Now for a further molecule.
# input Does pEC50 meet or surpass 6 for N#Cc1cnc2c(-n3ccnc3)cccc2c1N1CCN(c2ccccc2F)CC1 ?
# output No

src = ChEMBL document CHEMBL4665820
